FYI, the data here is from patent US20040029823A1.

System: JNK1 mRNA
Experiment: Northern assay of JNK1 mRNA expression in A549 cells
Format: cell-based, human
Conditions: JNK1 mRNA, chemically modified oligonucleotides, dose 400 nM
Strand notation (5' to 3'): a small letter for the sugar, then the base; units joined by * are phosphorothioate-linked, units joined directly phosphodiester-linked; [ ] holds rarer units or linkages, { } end groups; capitals alone tell only the bases. e = 2'-O-(2-methoxyethyl) (MOE); [5mC] = 5-methylcytosine; d = 2'-deoxy (DNA)
value.kind: Normalized % Control (%)
Give a bare numeral; the unit % is implied.

In plain terms, 15349 (antisense CTCTCTGTAGGCCCGCTTGG; sugars from the 5' end d9 e11, [5mC] at 12, 13, 14, 16, all phosphorothioate, methylation of C not given here) [compound 15349] has a documented Normalized % Control of 35.5

In plain terms, 15346 (antisense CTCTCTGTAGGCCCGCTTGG; sugars from the 5' end e5 d9 e6, [5mC] at 1, 3, 5, 16, all phosphorothioate, methylation of C not given here) [compound 15346] has a documented Normalized % Control of 11.0

In plain terms, 15348 (antisense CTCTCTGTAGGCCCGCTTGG; sugars from the 5' end e11 d9, [5mC] at 1, 3, 5, all phosphorothioate, methylation of C not given here) [compound 15348] has a documented Normalized % Control of 32.9

In plain terms, 15345 (antisense e[5mC]*eT*e[5mC]*eT*e[5mC]*eT*eG*eT*eA*eG*eG*e[5mC]*e[5mC]*e[5mC]*eG*e[5mC]*eT*eT*eG*eG) [compound 15345] has a documented Normalized % Control of 89.1
